# ASSAY OVERVIEW: M. tuberculosis growth inhibition, HTS (AID 449762);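 note: bacterial growth assessed after seven days of incubation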
# MEASUREMENT PARAMETERS: M. tuberculosis H37Rv growth inhibition, 7H9 media; at 25 µM; hits give high values
About 1,900 (0.58%) of roughly 330,000 compounds were called active. Inconclusive results (about 4%) are left out. Only a sample is shown. Potency and affinity values are given separately.
Assign inhibition to each entry below.
Numbers only, in %.

Please review the entries below; each comes with its answer.
[[record]]
compound = "CN(C)CCOc1ncnc2c1oc1ccccc12"
experimental_value = -7.93

[[record]]
compound = "COc1ccc(C2c3[nH]c4ccccc4c3C[C@H]3C(=O)N(C4CCN(Cc5ccccc5)CC4)CC(=O)N23)c(OC)c1 (stereo not given in full)"
experimental_value = 30.2

[[record]]
compound = "CCOc1ccc(C2c3[nH]c4ccccc4c3C[C@H]3C(=O)N(C4CC4)CC(=O)N23)cc1OC (stereo not given in full)"
experimental_value = 4.59


Okay, here is my list. What is inhibition for each of these?
1. COc1ccc(-n2nnnc2CNC(=O)C(=O)c2c[nH]c3ccccc23)cc1
2. COc1cc(/C=C/C(=O)OCC(=O)NCCC2=CCCCC2)cc(OC)c1OC

output:
[1.52, 2.02]
